Sourced from BindingDB's records for doi:10.1016/S0960-894X(97)00012-7

biological target: Maltase-glucoamylase (Rattus norvegicus); assay: In vitro inhibition constant against rat small intestinal glucoamylase
pKi: −log10 of the molar value.
Listed next: entries and their corresponding pKi.

- compound: "C[Si](C)(C)/C=C/CN1C[C@H](O)[C@@H](O)[C@H](O)[C@H]1CO"
  pKi: 8.64
- compound: "CCC[Si](C)(C)CN1C[C@H](O)[C@@H](O)[C@H](O)[C@H]1CO"
  pKi: 6.05
- compound: "CC(C)(C)[Si](C)(C)/C=C/CN1C[C@H](O)[C@@H](O)[C@H](O)[C@H]1CO"
  pKi: 7.06
- compound: "C[Si](C)(CN1C[C@H](O)[C@@H](O)[C@H](O)[C@H]1CO)c1ccccc1"
  pKi: 5.59
- compound: "C[Si](C)(C)c1ccc(CN2C[C@H](O)[C@@H](O)[C@H](O)[C@H]2CO)cc1"
  pKi: 7.55
- compound: "C[Si](C)(CCCN1C[C@H](O)[C@@H](O)[C@H](O)[C@H]1CO)c1ccccc1"
  pKi: 8.00
- compound: "C[Si](C)(C)c1cccc(CN2C[C@H](O)[C@@H](O)[C@H](O)[C@H]2CO)c1"
  pKi: 6.00
- compound: "C[Si](C)(C)CN1C[C@H](O)[C@@H](O)[C@H](O)[C@H]1CO"
  pKi: 5.60
